pKi: −log10 of the molar value.
Literature survey of pKi (system: Retinoic acid receptor beta (Homo sapiens)).

compound	result_operator	pKi
Cc1ccc(C2=CCC(C)(C)c3cc(C(/C=C/c4ccc(C(=O)O)cc4)=N\O)ccc32)cc1	=	5.72
CC(/C=C/C(F)=C(/C)c1cc2c(c(Cl)c1OC(C)C)OC(C)(C)C=C2C(C)C)=C\C(=O)O	=	5.89
COc1cc2c(cc1C(/C=C/c1ccc(C(=O)O)cc1)=N/O)C(C)(C)CCC2(C)C	=	5.60
COc1cc2c(cc1\C(C)=C(F)/C=C/C(C)=C/C(=O)O)C(C(C)(C)C)=CC(C)(C)O2	=	5.85
COc1cc2c(cc1C(=C/C=C/C(C)=C/C(=O)O)C(F)(F)F)C(C)(C)CCC2(C)C (stereo in doubt)	=	6.32
Cc1cc(N(C)c2ccc(C(=O)O)cc2)cc2c1OCC2(C)C	<	4.52
CCN(c1ccc(C(=O)O)cc1)c1cc(C(C)C)c2c(c1)C(C)(C)CO2	=	4.54
CCN(c1ccc(C(=O)O)cc1)c1cc(C)c2c(c1)C(C)(C)CO2	<	4.52
CCc1cc(N(C)c2ccc(C(=O)O)cc2)cc2c1OCC2(C)C	<	5.00
CCCCOc1cc2c(cc1\C(C)=C(F)/C=C/C(C)=C/C(=O)O)C(C(C)C)=CC(C)(C)O2	=	6.28
CCOc1cc2c(cc1\C(C)=C(F)/C=C/C(C)=C/C(=O)O)C(C(C)C)=CC(C)(C)O2	=	6.00
CC/C(=C/C=C/C(C)=C/C(=O)O)c1cc2c(cc1OC)OC(C)(C)C=C2C(C)C	=	6.21
C/C(=C/C=C(F)/C(C)=C/C(=O)O)c1cc(C(C)(C)C)cc(C(C)(C)C)c1OCC(F)F	=	5.18
CC(C)N(c1ccc(C(=O)O)cc1)c1ccc2c(c1)C(C)(C)OC2(C)C	<	5.00
COc1c(\C(C)=C(F)/C=C/C(C)=C/C(=O)O)cc2c(c1Cl)OC(C)(C)C=C2C(C)C	=	5.64
CCOc1cc2c(cc1\C(C)=C(F)/C=C/C(C)=C/C(=O)O)C(c1ccccc1)=CC(C)(C)O2	=	5.85
